B1: Neutrophil cytosol factor 2 (Homo sapiens), P19878 (parent)
chain: MSLVEAISLWNEGVLAADKKDWKGALDAFSAVQDPHSRICFNIGCMYTILKNMTEAEKAFTRSINRDKHLAVAYFQRGMLYYQTEKYDLAIKDLKEALIQLRGNQLIDYKILGLQFKLFACEVLYNIAFMYAKKEEWKKAEEQLALATSMKSEPRHSKIDKAMECVWKQKLYEPVVIPVGKLFRPNERQVAQLAKKDYLGKATVVASVVDQDSFSGFAPLQPQAAEPPPRPKTPEIFRALEGEAHRVLFGFVPETKEELQVMPGNIVFVLKKGNDNWATVMFNGQKGLVPCNYLEPVELRIHPQQQPQEESSPQSDIPAPPSSKAPGRPQLSPGQKQKEEPKEVKLSVPMPYTLKVHYKYTVVMKTQPGLPYSQVRDMVSKKLELRLEHTKLSYRPRDSNELVPLSEDSMKDAWGQVKNYCLTLWCENTVGDQGFPDEPKESEKADANNQTTEPQLKKGSQVEALFSYEATQPEDLEFQEGDIILVLSKVNEEWLEGECKGKVGIFPKVFVEDCATTDLESTRREV

- Variants of: B1
- CONDITION_INFO: with kifa3_human KIFAP3, Q92845
- Sequence (Q92845 whole entry): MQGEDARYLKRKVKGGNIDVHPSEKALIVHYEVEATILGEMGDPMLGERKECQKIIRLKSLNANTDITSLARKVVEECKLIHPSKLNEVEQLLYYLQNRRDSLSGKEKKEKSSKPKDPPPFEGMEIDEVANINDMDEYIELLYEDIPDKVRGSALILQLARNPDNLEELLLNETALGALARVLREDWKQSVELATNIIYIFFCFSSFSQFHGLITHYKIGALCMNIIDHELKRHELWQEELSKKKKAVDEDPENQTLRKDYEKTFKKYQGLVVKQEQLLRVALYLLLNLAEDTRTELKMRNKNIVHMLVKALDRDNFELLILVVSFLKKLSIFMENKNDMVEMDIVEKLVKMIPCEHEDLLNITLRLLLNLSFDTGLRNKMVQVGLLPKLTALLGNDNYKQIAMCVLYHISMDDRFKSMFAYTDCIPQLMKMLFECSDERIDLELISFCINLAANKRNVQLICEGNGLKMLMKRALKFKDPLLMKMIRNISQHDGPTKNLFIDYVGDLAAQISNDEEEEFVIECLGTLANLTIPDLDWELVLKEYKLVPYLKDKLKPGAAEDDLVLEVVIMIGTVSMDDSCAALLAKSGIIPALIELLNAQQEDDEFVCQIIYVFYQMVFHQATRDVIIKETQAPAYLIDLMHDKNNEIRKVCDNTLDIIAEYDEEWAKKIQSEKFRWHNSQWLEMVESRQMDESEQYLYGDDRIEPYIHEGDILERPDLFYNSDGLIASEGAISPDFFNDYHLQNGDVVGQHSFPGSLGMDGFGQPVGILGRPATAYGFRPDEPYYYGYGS
REPORTED_METRIC: effect of a mutation on the interaction

R395W    with no effect
N419I    with no effect
